- System Name: YAP-TEAD interaction (Homo sapiens)
- Sequence (P28347 whole entry, the tested form may be a part): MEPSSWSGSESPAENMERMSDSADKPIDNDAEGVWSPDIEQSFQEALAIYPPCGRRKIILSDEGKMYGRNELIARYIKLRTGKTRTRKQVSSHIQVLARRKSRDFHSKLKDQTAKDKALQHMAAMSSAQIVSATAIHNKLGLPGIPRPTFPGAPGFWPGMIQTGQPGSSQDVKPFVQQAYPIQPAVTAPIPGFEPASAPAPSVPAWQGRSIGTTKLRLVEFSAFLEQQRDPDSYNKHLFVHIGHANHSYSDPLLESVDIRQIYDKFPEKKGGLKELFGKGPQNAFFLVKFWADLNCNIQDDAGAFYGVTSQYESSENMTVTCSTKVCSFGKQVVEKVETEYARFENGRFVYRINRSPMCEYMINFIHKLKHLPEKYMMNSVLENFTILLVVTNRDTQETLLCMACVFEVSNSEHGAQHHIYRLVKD
- Test Description: Cell-based TEAD-GAL4 transactivation assay (luciferase reporter)
- Particulars: HEK293 cells transfected with TEAD1-Gal4, YAP mutant (S127A, S397A) and luciferase reporter; compounds 0.1 μM to 30 μM, 24 h
pIC50: −log10 of the molar value.
Quantity Measured: pIC50

{"Compound": "CCN(/N=C/c1ccc2c(c1)COB2O)c1ncnc2c1ccn2C", "Observed Measurement": 6.04}
{"Compound": "CN(/N=C/c1ccc2c(c1)COB2O)c1ncnc2c1CC(=O)N2C", "Observed Measurement": 5.67}
{"Compound": "COc1cc(/C=N/N(C)c2ncnc3c(C)csc23)ccc1B(O)O", "Observed Measurement": 5.94}
{"Compound": "CCN(/N=C/c1ccc(B(O)O)c(OC)c1)c1ncnc2ncsc12", "Observed Measurement": 5.56}

P: COc1cc(/C=N/N(CC(C)C)C2=NS(=O)(=O)c3ccccc32)ccc1B1OC(=O)CN(C)CC(=O)O1
Q: CCN(/N=C/c1ccc2c(c1)COB2O)c1ncnc2cc[nH]c12
R: CCN(/N=C/c1ccc2c(c1)COB2O)c1ncnc2nc(N(C)C)sc12
S: COc1cc(/C=N/N(CC(C)C)c2ncnc3c(C)csc23)ccc1B(O)O
Q) Highest pIC50 first, then in falling order down to the smallest. Hello, could you send the labels back in the order asked? Thank you.
A) R, Q, S, P
(R: 6.00, Q: 5.76, S: 5.42, P: 5.18)

I: CN(/N=C/c1ccc2c(c1)COB2O)c1ncnc2c1[nH]c(=O)n2C1CCC1
II: COc1cc(OC)c2ncnc(N(CC(C)C)/N=C/c3ccc(B(O)O)c(OC)c3)c2c1
Q) Kindly identify the item with the lower pIC50 figure among these two: I and II Identify your pick by its label.
A) II
(II: 5.11, I: 5.78)

1: CCN(/N=C/c1ccc(B(O)O)c(OC)c1)c1ncnc2c1ccn2C
2: COc1cc(/C=N/N(CC(C)C)c2ncnc3ccsc23)ccc1B(O)O
3: CCN(/N=C/c1ccc(B(O)O)c(OC)c1)c1ncnc2ccsc12
4: CN(/N=C/c1ccc2c(c1)COB2O)C1=NS(=O)(=O)c2ccccc21
5: CCN(/N=C/c1ccc(B(O)O)c(OC)c1)C1=NS(=O)(=O)c2ccccc21
Q) Would you mind ranking these compounds by ascending pIC50? Reply: labels, ordered per the request.
A) 5, 4, 1, 2, 3

----------
- System Name: YAP-TEAD interaction (Homo sapiens)
- Construct: expressed in transfected cells; host or cells: HEK293 GripTite 293 MSR (Invitrogen R795-07)
- Test Description: Cell-based TEAD-GAL4 transactivation assay (luciferase reporter)
- Particulars: HEK293, 24 h, HEK293 cells transfected with TEAD1-Gal4, YAP mutant (S127A, S397A) and luciferase reporter, compounds 0.1 μM to 30 μM, read-out: TEAD-GAL4 Transactivation activity Max Act
- Experimental: To identify inhibitors of YAP-TEAD interaction, a transient transactivation assay was carried out on HEK293 cell line (HEK293 GripTite™ 293 MSR (Invitrogen R795-07)) using plasmids containing the full length TEAD1 sequences, the full length YAP mutant (S127A, S397A) and a luciferase gene reporter. […] 24 h later, the luciferase activity was determined after addition of 100 μl of Steady Glo™ luciferase assay system (Promega E2550) according to the manufacturer's directions. […]
Quantity Measured: Emax (%)

{"Compound": "CCN(/N=C/c1ccc2c(c1)COB2O)c1ncnc2ccsc12 [Ex 38]", "Emax [%]": 81}
{"Compound": "COc1cc(/C=N/N(CC(C)C)C2=NS(=O)(=O)c3ccc(C)cc32)ccc1B(O)O [Ex 7]", "Emax [%]": 95}
{"Compound": "CC(C)CN(/N=C/c1ccc2c(c1)CCOB2O)C1=NS(=O)(=O)c2ccccc21 [Ex 46]", "Emax [%]": 72}
{"Compound": "CCN(/N=C/c1ccc(B(O)O)c(OC)c1)c1ncnc2c1ccn2C [Ex66]", "Emax [%]": 87}
{"Compound": "COc1cc(/C=N/N(C)c2ncnc3c(C)csc23)ccc1B(O)O [Ex71]", "Emax [%]": 68}
{"Compound": "Cc1csc2c(N3N=C(c4ccc5c(c4)COB5O)CCC3C)ncnc12 (stereo not drawn) [Ex118]", "Emax [%]": 86}
{"Compound": "CCN(/N=C/c1ccc2c(c1)COB2O)c1ncnc2c1ccn2CC [Ex85]", "Emax [%]": 81}
{"Compound": "Cc1ccc2c(c1)C(N(C)/N=C/c1ccc3c(c1)COB3O)=NS2(=O)=O [Ex 36]", "Emax [%]": 60}
{"Compound": "CC(C)CN(/N=C/c1ccc2c(c1)C(C)OB2O)C1=NS(=O)(=O)c2ccccc21 (stereo not drawn) [Ex 49]", "Emax [%]": 88}
{"Compound": "COCCN(/N=C/c1ccc2c(c1)COB2O)c1ncnc2nc(SC)sc12.Cl [Ex95, hydrochloride]", "Emax [%]": 85}
{"Compound": "CN(/N=C/c1ccc2c(c1)COB2O)c1ncnc2c1CCC(=O)N2 [Ex100]", "Emax [%]": 85}
{"Compound": "CCCCN(CCCC)C(=O)c1csc2c(N(CC)/N=C/c3ccc4c(c3)COB4O)ncnc12 [Ex114]", "Emax [%]": 83}

Reference source for all entries: patent US11999758B2
